Data credit: the supplement of paper PMC7366291

tested on: Danio rerio Tg(wt1b:EGFP) embryo, pronephros; assay: glomerular separation, fold change vs DMSO control; higher = glomeruli further apart (abnormal); settings: 25 µM; exposure: 24-48 hpf
Structures can show the parent of a compound that is named as a salt.
// label = T if glomerular separation is not less than 1, otherwise F

QUERY: Could you verify whether the entry `CN1CCN(c2c(F)cc3c(=O)c(C(=O)O)cn4c3c2SCC4)CC1` shows glomerular separation of no less than 1?
RESULT: F

QUERY: Could you please find out whether CC(=O)Nc1nnc(S(N)(=O)=O)s1 [Acetazolamide] has glomerular separation that meets 1 or exceeds it?
RESULT: F

QUERY: Does the reported glomerular separation for O=C1OC(CN2CCOCC2)CN1/N=C/c1ccc([N+](=O)[O-])o1 (centres undefined) [Furaltadone hydrochloride] fall at or above the 1 mark?
RESULT: F

QUERY: Hello, I need to know if `C[C@]12CC[C@@H]3c4ccc(O)cc4CC[C@H]3[C@@H]1CC[C@@H]2O` has measured glomerular separation not below 1. Thanks!
RESULT: T

QUERY: Does the reported glomerular separation for `O=C(Cn1ccnc1[N+](=O)[O-])NCCO` fall at or above the 1 mark?
RESULT: F

QUERY: Evaluate O=C1c2cccc(O)c2C(=O)c2c(O)cccc21 [1,8-Dihydroxyanthraquinone] : glomerular separation at minimum 1?
RESULT: T

QUERY: Check if glomerular separation >= 1 (inclusive). Item: CC(C(=O)O)c1ccc(C(=O)c2cccs2)cc1 (centres undefined)
RESULT: T

QUERY: Given NS(=O)(=O)c1cc2c(cc1Cl)NC(C(Cl)Cl)NS2(=O)=O (centres undefined) [Trichlormethiazide] , state whether its glomerular separation is at least 1.
RESULT: F

QUERY: Reported glomerular separation at or above 1? `Clc1ccc(Nc2nnc(Cc3ccncc3)c3ccccc23)cc1`
RESULT: T

###

test system: Danio rerio Tg(wt1b:EGFP) embryo, pronephros; experiment: fraction of imaged embryos annotated as normal kidney; higher = less nephrotoxic; extreme values may be limits of the assay; settings: 25 µM; exposure: 24-48 hpf
Counter-ions that a name gives are not always drawn.
We use 0.8 as the dividing line for fraction of imaged embryos annotated as normal kidney: on or above the line is 1.0, below is 0.0.

QUERY: Exam item: decide whether the reported fraction of imaged embryos annotated as normal kidney for `Cc1cc(=O)oc2cc(O)ccc12` is at least 0.8.
RESULT: 1.0

QUERY: // inclusive: fraction of imaged embryos annotated as normal kidney at least 0.8? input: CC(C)N1CCN(c2ccc(OCC3COC(Cn4cncn4)(c4ccc(Cl)cc4Cl)O3)cc2)CC1 (stereo not drawn)
RESULT: 1.0

QUERY: Say whether `Cc1nc2n(c(=O)c1CCN1CCC(c3noc4cc(F)ccc34)CC1)CCCC2` shows fraction of imaged embryos annotated as normal kidney of 0.8 or more.
RESULT: 1.0

QUERY: API: above_or_equal(metric=fraction of imaged embryos annotated as normal kidney, cutoff=0.8) for item CCN(CC)C(=O)C1(c2ccccc2)CC1CN (stereo not drawn) [Milnacipran hydrochloride]
RESULT: 1.0

QUERY: Given CCC(=O)O[C@]1(C(=O)SCF)[C@H](C)C[C@H]2[C@@H]3C[C@H](F)C4=CC(=O)C=C[C@]4(C)[C@@]3(F)[C@@H](O)C[C@@]21C [Fluticasone propionate] , state whether its fraction of imaged embryos annotated as normal kidney is at least 0.8.
RESULT: 0.0

QUERY: Would you say C[N+](C)(C)CCCCCC[N+](C)(C)C [Hexamethonium dibromide dihydrate] shows fraction of imaged embryos annotated as normal kidney at minimum 0.8?
RESULT: 0.0

QUERY: Textbook exercise: given the entry Cc1cc(C(C)(C)C)c(O)c(C)c1CC1=NCCN1 [Oxymetazoline hydrochloride] , state whether its fraction of imaged embryos annotated as normal kidney is greater than or equal to 0.8.
RESULT: 1.0

QUERY: In plain terms: is recorded fraction of imaged embryos annotated as normal kidney at least 0.8 for CNCC(O)c1ccc(OC(=O)C(C)(C)C)c(OC(=O)C(C)(C)C)c1 (stereo not drawn) [Dipivefrin hydrochloride] ?
RESULT: 1.0

QUERY: Evaluate CC[N+](C)(C)Cc1ccccc1Br [Bretylium tosylate] : fraction of imaged embryos annotated as normal kidney at minimum 0.8?
RESULT: 1.0

QUERY: Textbook exercise: given the entry CN1CCN(CCCN2c3ccccc3Sc3ccc(Cl)cc32)CC1 [Prochlorperazine dimaleate] , state whether its fraction of imaged embryos annotated as normal kidney is greater than or equal to 0.8.
RESULT: 1.0

QUERY: Check this compound for fraction of imaged embryos annotated as normal kidney at or above 0.8: OCC(O)CN1CCN(c2ccccc2)CC1 (racemic) [Dropropizine (R,S)]
RESULT: 0.0

QUERY: For this compound, is measured fraction of imaged embryos annotated as normal kidney 0.8 or higher? CCCCOc1ccc(C(=O)CCN2CCCCC2)cc1 [Dyclonine hydrochloride]
RESULT: 1.0

QUERY: Form field: fraction of imaged embryos annotated as normal kidney at least 0.8? Entry: CO[C@@]1(NC(=O)Cc2cccs2)C(=O)N2C(C(=O)O)=C(COC(N)=O)CS[C@@H]21 [Cefoxitin sodium salt]
RESULT: 1.0

QUERY: Identify whether the reported fraction of imaged embryos annotated as normal kidney of the following compound is 0.8 or greater: `Cc1cn([C@H]2C=C[C@@H](CO)O2)c(=O)[nH]c1=O`
RESULT: 1.0

QUERY: Determine whether measured fraction of imaged embryos annotated as normal kidney meets or exceeds 0.8 for Clc1ccc(C(Cn2ccnc2)OCc2ccsc2Cl)c(Cl)c1 (stereo not drawn)
RESULT: 0.0

QUERY: Answer whether fraction of imaged embryos annotated as normal kidney of CCCC1O[C@@H]2C[C@H]3[C@@H]4CCC5=CC(=O)C=C[C@]5(C)[C@H]4[C@@H](O)C[C@]3(C)[C@]2(C(=O)CO)O1 (stereo partly drawn) [Budesonide] is greater than or equal to 0.8.
RESULT: 1.0

QUERY: Reported fraction of imaged embryos annotated as normal kidney at or above 0.8? Clc1ccc(C(Cn2ccnc2)OCc2csc3c(Cl)cccc23)c(Cl)c1 (stereo not drawn) [Sertaconazole nitrate]
RESULT: 0.0

QUERY: Check if fraction of imaged embryos annotated as normal kidney >= 0.8 (inclusive). Item: O=C1c2cccc3c2[C@H](CCC3)CN1[C@@H]1CN2CCC1CC2 [Palonosetron hydrochloride]
RESULT: 0.0

QUERY: Does the compound `CCc1cccc(CC)c1NC(=O)CN(CC(=O)O)CC(=O)O` have recorded fraction of imaged embryos annotated as normal kidney that is 0.8 or more?
RESULT: 0.0

QUERY: I'd appreciate it if you could say whether `C[N+](C)(C)CCOC(N)=O` has fraction of imaged embryos annotated as normal kidney at least equal to 0.8.
RESULT: 0.0

QUERY: Does the compound CC(C)[C@H](N)C(=O)OCCOCn1cnc2c(=O)nc(N)[nH]c21 [Valacyclovir hydrochloride] have recorded fraction of imaged embryos annotated as normal kidney that is 0.8 or more?
RESULT: 1.0

QUERY: Record CC(=O)OCC(=O)[C@@]1(OC(C)=O)[C@@H](C)C[C@H]2[C@@H]3C[C@H](F)C4=CC(=O)C=C[C@]4(C)[C@@]3(F)[C@@H](O)C[C@@]21C [Diflorasone Diacetate] ; criterion: fraction of imaged embryos annotated as normal kidney no lower than 0.8. Met?
RESULT: 0.0

QUERY: Evaluate COc1cccc(OC)c1C(=O)N[C@@H]1C(=O)N2[C@@H]1SC(C)(C)[C@@H]2C(=O)O [Methicillin sodium] : fraction of imaged embryos annotated as normal kidney at minimum 0.8?
RESULT: 0.0

QUERY: Hi team, for `N[C@@H]1CONC1=O` , is the recorded fraction of imaged embryos annotated as normal kidney at or above 0.8?
RESULT: 0.0

QUERY: Does fraction of imaged embryos annotated as normal kidney meet or surpass 0.8 for CC(C)(C)NC[C@H](O)COc1cccc2c1CCCC2=O [(-) -Levobunolol hydrochloride] ?
RESULT: 1.0

QUERY: Textbook exercise: given the entry CNCC[C@@H](Oc1ccccc1C)c1ccccc1 [Tomoxetine hydrochloride] , state whether its fraction of imaged embryos annotated as normal kidney is greater than or equal to 0.8.
RESULT: 0.0

QUERY: Identify whether the reported fraction of imaged embryos annotated as normal kidney of the following compound is 0.8 or greater: N=C(N)NCCN1CCCCCCC1 [Guanethidine sulfate]
RESULT: 1.0

QUERY: Please indicate if the recorded fraction of imaged embryos annotated as normal kidney for CN1[C@@H]2CC[C@H]1C[C@@H](OC(=O)C(O)c1ccccc1)C2 (mixture of isomers) [Homatropine hydrobromide (R,S)] meets or exceeds 0.8.
RESULT: 0.0

QUERY: State whether the measured fraction of imaged embryos annotated as normal kidney reaches 0.8, counting equality as reaching it, for CC(Cc1cccc(C(F)(F)F)c1)NCCOC(=O)c1ccccc1 (stereo not drawn)
RESULT: 1.0

QUERY: Is fraction of imaged embryos annotated as normal kidney for CO/N=C(\C(=O)N[C@@H]1C(=O)N2C(C(=O)O)=C(COC(C)=O)CS[C@H]12)c1csc(N)n1 [Cefotaxime sodium salt] at or above 0.8?
RESULT: 1.0

QUERY: # bool: fraction of imaged embryos annotated as normal kidney of Nc1nc(N)nc(-c2cc(Cl)ccc2Cl)n1 [Irsogladine maleate] >= 0.8
RESULT: 1.0

QUERY: Determine whether measured fraction of imaged embryos annotated as normal kidney meets or exceeds 0.8 for `OC(Cn1cncn1)(Cn1cncn1)c1ccc(F)cc1F`
RESULT: 1.0

QUERY: Form field: fraction of imaged embryos annotated as normal kidney at least 0.8? Entry: `CC1(C)S[C@@H]2[C@H](NC(=O)[C@H](N)c3ccc(O)cc3)C(=O)N2[C@H]1C(=O)O`
RESULT: 1.0
